Measured Activity accompanies every entry in the list below.
- assay_info: Antioxidant activity assessed as total antioxidant capacity measured as ascorbic acid equivalents at 100 ug/ml after 90 mins by phosphomolybdenum method
- Format: functional
API: value field is a number in µgequiv/ml; no unit string.

INSERT INTO results (compound, quantity_unit, measured_number) VALUES
  ('COc1ccc(C2C(C#N)=C(N)OC3=C2CNc2c3cccc2[N+](=O)[O-])cc1OC (centres undefined)', 'µgequiv/ml', 13.7);

**Q:** Bench note: what Activity did N#CC1=C(N)OC2=C(CNc3c2cccc3[N+](=O)[O-])C1c1cccs1 (centres undefined) show?
**A:** 11.8

**Q:** For N#CC1=C(N)OC2=C(CNc3c2cccc3[N+](=O)[O-])C1c1ccc(Br)cc1 (centres undefined) , what is its reported Activity?
**A:** 5.67

**Q:** Quick check: Activity of O=[N+]([O-])c1cccc2c1NCC1C2=NN(c2ccccc2)C1c1ccc(F)cc1 (centres undefined) ?
**A:** 11.2

**Q:** Returns the measured Activity for the input compound. Input: Cc1ccc(C2C(C#N)=C(N)OC3=C2CNc2c3cccc2[N+](=O)[O-])cc1 (centres undefined)
**A:** 8.15

**Q:** Find the recorded Activity belonging to COc1ccc(C2C3CNc4c(cccc4[N+](=O)[O-])C3=NN2c2ccccc2)cc1OC (centres undefined) and report it.
**A:** 12.3

**Q:** Value lookup for Activity; key = CCOc1ccc(C2C3CNc4c(cccc4[N+](=O)[O-])C3=NN2c2ccccc2)c(OCC)c1 (centres undefined)
**A:** 9.47

**Q:** I am curious: what Activity value has been reported for COc1ccc(N2N=C3c4cc(Cl)cc([N+](=O)[O-])c4NCC3C2c2ccc(Cl)cc2)cc1 (centres undefined) ?
**A:** 8.36

**Q:** What value of Activity has been recorded for this entry: COc1ccc(C2C(C#N)=C(N)OC3=C2CNc2c3cccc2[N+](=O)[O-])c(OC)c1 (centres undefined)
**A:** 14.2

###

Some compounds, each annotated with its measured Activity.
- assay_info: Antioxidant activity assessed as total antioxidant capacity measured as ascorbic acid equivalents at 100 ug/ml after 90 mins by phosphomolybdenum method
- Assay type: functional
Note to self: number, then unit, no commentary.

INSERT INTO results (compound, measured_parameter, result) VALUES
  ('N#CC1=C(N)OC2=C(CNc3c2cccc3[N+](=O)[O-])C1c1ccc(F)cc1 (stereo unspecified)', 'Activity', '7.45 µgequiv/ml'),
  ('N#CC1=C(N)OC2=C(CNc3c2cccc3[N+](=O)[O-])C1c1ccc(Cl)cc1 (stereo unspecified)', 'Activity', '2.57 µgequiv/ml'),
  ('Cc1ccc(C2C3CNc4c(cccc4[N+](=O)[O-])C3=NN2c2ccccc2)cc1 (stereo unspecified)', 'Activity', '10.2 µgequiv/ml');

**Q:** For the compound shown here, O=[N+]([O-])c1cccc2c1NCC1C2=NN(c2ccccc2)C1c1ccc(Cl)cc1 (stereo unspecified) , give the reported Activity.
**A:** 10.4 µgequiv/ml

**Q:** Fill blank: measured Activity of the compound COc1ccc(C2C3CNc4c(cccc4[N+](=O)[O-])C3=NN2c2ccccc2)cc1 (stereo unspecified) is ____.
**A:** 14.3 µgequiv/ml

**Q:** Look at this compound and give its reported Activity. O=[N+]([O-])c1cccc2c1NCC1C2=NN(c2ccccc2)C1c1ccc(Br)cc1 (stereo unspecified)
**A:** 18.2 µgequiv/ml
